Measured values drawn from patent US8884011B2 for this set.

Biological target: wild-type RT of HIV-1 (Human immunodeficiency virus type 1 group M subtype B)
Assay: biochemical
Format: biochemical
Conditions: Kd (μM), wild-type RT
PROPERTY_LABEL: Kd (µM)

| COMPOUND | NUMERIC_READOUT |
| --- | --- |
| C[C@H](Cn1cnc2c(N)ncnc21)OCP(O)(=S)OP(=O)(O)OP(=O)(O)O (stereo partly shown) | 5.2 |

---

Tested on: HIV-1-LAI
Assay: Anti-HIV test in CMSP cultures infected by HIV-1-LAI (RT activity in supernatants)
Format: cell-based
Settings: Human immunodeficiency virus 1, 168 h, read-out: EC50 (μM) HIV-1 (LAI)
Catalogue of EC50 values

| COMPOUND | TESTED_TARGET | EC50 / µM |
| --- | --- | --- |
| Nc1ncnc2c1ncn2CCOCP(=O)(O)S (stereo not drawn) [Compound 6, 9-[2-(thiophosphonomethoxy)ethyl]adenine] | HIV-1-LAI | 7 |
| CC(Cn1cnc2c(N)ncnc21)OCP(=O)(O)O (stereo not drawn) | HIV-1-LAI | 1.3 |
| C[C@H](Cn1cnc2c(N)ncnc21)OCP(=O)(O)S (stereo partly drawn) | HIV-1-LAI | 1.6 |

---

Test system: Herpes simplex virus-2 (G)
Assay: Virus panel, CPE assay: Herpes simplex virus-2 (G) in HEL cells
Assay type: cell-based
Conditions: Human alphaherpesvirus 2
PROPERTY_LABEL: EC50 (µM)

| MOLECULE | PROPERTY_LABEL | NUMERIC_READOUT |
| --- | --- | --- |
| Nc1ncnc2c1ncn2CCOCP(=O)(O)S (stereo not shown) [Compound 6, 9-[2-(thiophosphonomethoxy)ethyl]adenine] | EC50 | 58 |

---

Tested on: influenza A (H3N2)
Assay: Virus panel: influenza A (H3N2) in MDCK cells
Assay type: cell-based
Conditions: read-out: in vitro antiviral activity (EC50), none up to
EC50 values, listed per item
PROPERTY_LABEL: EC50

| COMPOUND | PROPERTY_LABEL | RESULT |
| --- | --- | --- |
| C[C@H](Cn1cnc2c(N)ncnc21)OCP(=O)(O)S (some centres unmarked) | EC50 | > 200 µM |
| Nc1ncnc2c1ncn2CCOCP(=O)(O)S (centres unmarked) [Compound 6, 9-[2-(thiophosphonomethoxy)ethyl]adenine] | EC50 | > 200 µM |

---

Test system: Feline Herpes virus
Assay: Virus panel: Feline Herpes virus in CRFK cells
Assay type: cell-based
pEC50: −log10 of the molar value.

| COMPOUND | pEC50 |
| --- | --- |
| Nc1ncnc2c1ncn2CCOCP(=O)(O)S (stereo not shown) [Compound 6, 9-[2-(thiophosphonomethoxy)ethyl]adenine] | 4.42 |

---

Biological target: K65R mutant RT of HIV-1 (Human immunodeficiency virus type 1 group M subtype B, UniProt P04585, K652R)
Assay: biochemical
Format: biochemical
Conditions: K65R mutant RT
Reported Kd is given for each of the following compounds.

| COMPOUND | Kd |
| --- | --- |
| Nc1ncnc2c1ncn2[C@H]1C[C@H](O)[C@@H](COP(=O)(O)OP(=O)(O)OP(=O)(O)O)O1 | 6.89 µM |
| C[C@@H](Cn1cnc2c(N)ncnc21)OCP(=O)(O)OP(=O)(O)OP(=O)(O)O [PMPApp, PMPA diphosphate] | 18 µM |
| Nc1ncnc2c1ncn2CCOCP(=O)(O)OP(=O)(O)OP(=O)(O)O [PMEApp, PMEA diphosphate] | 7.7 µM |

---

Catalogue of EC50 readings, one per entry.
Test system: HBV
Experiment: Anti-HBV test in infected HepAD38 cells (intracellular viral DNA by Q-PCR)
Assay type: cell-based
Conditions: Hepatitis B virus, 144 h; infected HepAD38 cells; 50% reduction of viral DNA; day 6 post-induction
PROPERTY_LABEL: EC50 (µM)

| COMPOUND | PROPERTY_LABEL | UNIT | NUMERIC_READOUT |
| --- | --- | --- | --- |
| Nc1ncnc2c1ncn2CCOCP(=O)(O)O | EC50 | µM | 8.8 |
| CC(Cn1cnc2c(N)ncnc21)OCP(=O)(O)O (stereo not shown) | EC50 | µM | 2.88 |
| C[C@H](Cn1cnc2c(N)ncnc21)OCP(=O)(O)S (stereo partly shown) | EC50 | µM | 2.26 |
| Nc1ncnc2c1ncn2CCOCP(=O)(O)S (stereo not shown) [Compound 6, 9-[2-(thiophosphonomethoxy)ethyl]adenine] | EC50 | µM | 9.6 |

---

Test: Cytostatic effect on parent hepatoma cell line HepG2 (MTS method)
Settings: human, exponentially growing HepG2 cells

| COMPOUND | CC50 at 3 days |
| --- | --- |
| CC(Cn1cnc2c(N)ncnc21)OCP(=O)(O)O (stereo not shown) | > 35 µM |

---

Target: UniProt P04585
Assay: biochemical
Assay type: biochemical
Settings: wild-type RT; unit inferred; read-out: affinities of the RT for the analogues (Kd)

| COMPOUND | Kd / µM |
| --- | --- |
| Nc1ncnc2c1ncn2[C@H]1C[C@H](O)[C@@H](COP(=O)(O)OP(=O)(O)OP(=O)(O)O)O1 [dATP] | 7.5 |

---

Target: K65R mutant RT of HIV-1 (Human immunodeficiency virus type 1 group M subtype B, UniProt P04585, K652R)
Assay: biochemical
Assay type: biochemical
Conditions: K65R mutant RT
kpol/Kd values for the molecules below.

| MOLECULE | kpol/Kd |
| --- | --- |
| Nc1ncnc2c1ncn2[C@H]1C[C@H](O)[C@@H](COP(=O)(O)OP(=O)(O)OP(=O)(O)O)O1 [dATP] | 1.69 |
| C[C@H](Cn1cnc2c(N)ncnc21)OCP(O)(=S)OP(=O)(O)OP(=O)(O)O (some centres unmarked) [Compound 13] | 0.03 |
| Nc1ncnc2c1ncn2CCOCP(=O)(O)OP(=O)(O)OP(=O)(O)O [PMEApp, PMEA diphosphate] | 0.1 |
| Nc1ncnc2c1ncn2CCOCP(O)(=S)OP(=O)(O)OP(=O)(O)O (centres unmarked) [Compound 12] | 0.04 |
| C[C@@H](Cn1cnc2c(N)ncnc21)OCP(=O)(O)OP(=O)(O)OP(=O)(O)O [PMPApp, PMPA diphosphate] | 0.017 |

---

Each entry below lists one item and its recorded CC50 at 3 days value.
Assay: Cytostatic effect on parent hepatoma cell line HepG2 (MTS method)
Settings: human
PROPERTY_LABEL: CC50 at 3 days

| COMPOUND | RESULT |
| --- | --- |
| Nc1ncnc2c1ncn2CCOCP(=O)(O)O | > 200 µM |
| Nc1ncnc2c1ncn2CCOCP(=O)(O)S (stereo not drawn) [Compound 6, 9-[2-(thiophosphonomethoxy)ethyl]adenine] | > 166 µM |
| C[C@H](Cn1cnc2c(N)ncnc21)OCP(=O)(O)S (stereo partly drawn) | > 174 µM |

---

Reported EC50 values follow for various molecules
Tested on: HBV
Assay: Anti-HBV test in infected Huh7 cells
Assay type: cell-based
Details: Hepatitis B virus, Huh-7, read-out: EC50 (μM) HBV

| MOLECULE | EC50 (µM) |
| --- | --- |
| CC(Cn1cnc2c(N)ncnc21)OCP(=O)(O)O (stereo not drawn) | 4 |
| C[C@H](Cn1cnc2c(N)ncnc21)OCP(=O)(O)S (stereo partly drawn) | 5 |
| Nc1ncnc2c1ncn2CCOCP(=O)(O)S (stereo not drawn) [Compound 6, 9-[2-(thiophosphonomethoxy)ethyl]adenine] | 4.5 |

---

The compounds listed here are annotated with their CC50 at 7 days.
Assay: Cytotoxicity by MTT test in cultures of uninfected CMSP
Details: human

| COMPOUND | CC50 at 7 days |
| --- | --- |
| C[C@H](Cn1cnc2c(N)ncnc21)OCP(=O)(O)S (stereo partly shown) | > 100 µM |
| CC(Cn1cnc2c(N)ncnc21)OCP(=O)(O)O (stereo not shown) | > 100 µM |
| Nc1ncnc2c1ncn2CCOCP(=O)(O)S (stereo not shown) [Compound 6, 9-[2-(thiophosphonomethoxy)ethyl]adenine] | > 42 µM |
| Nc1ncnc2c1ncn2CCOCP(=O)(O)O | > 19 µM |

---

Target: wild-type RT of HIV-1 (Human immunodeficiency virus type 1 group M subtype B, UniProt P04585)
Assay: biochemical
Assay type: biochemical
Conditions: wild-type RT; read-out: Kd
pKd: −log10 of the molar value.
As shown below, each of these compounds has a reported pKd value.
PROPERTY_LABEL: pKd

| COMPOUND | NUMERIC_READOUT |
| --- | --- |
| Nc1ncnc2c1ncn2[C@H]1C[C@H](O)[C@@H](COP(=O)(O)OP(=O)(O)OP(=O)(O)O)O1 [dATP] | 5.13 |
| Nc1ncnc2c1ncn2CCOCP(=O)(O)OP(=O)(O)OP(=O)(O)O [PMEApp, PMEA diphosphate] | 5.10 |
| C[C@@H](Cn1cnc2c(N)ncnc21)OCP(=O)(O)OP(=O)(O)OP(=O)(O)O [PMPApp, PMPA diphosphate] | 4.64 |
